For each record, write down the corresponding IC50.
Target: FL_Reg1 (full-length human Regnase-1) phosphorylation by TBK1 (Homo sapiens)
Construct: made in house; host or cells: Expi293 cells
Sequence (Q5D1E8 1-599): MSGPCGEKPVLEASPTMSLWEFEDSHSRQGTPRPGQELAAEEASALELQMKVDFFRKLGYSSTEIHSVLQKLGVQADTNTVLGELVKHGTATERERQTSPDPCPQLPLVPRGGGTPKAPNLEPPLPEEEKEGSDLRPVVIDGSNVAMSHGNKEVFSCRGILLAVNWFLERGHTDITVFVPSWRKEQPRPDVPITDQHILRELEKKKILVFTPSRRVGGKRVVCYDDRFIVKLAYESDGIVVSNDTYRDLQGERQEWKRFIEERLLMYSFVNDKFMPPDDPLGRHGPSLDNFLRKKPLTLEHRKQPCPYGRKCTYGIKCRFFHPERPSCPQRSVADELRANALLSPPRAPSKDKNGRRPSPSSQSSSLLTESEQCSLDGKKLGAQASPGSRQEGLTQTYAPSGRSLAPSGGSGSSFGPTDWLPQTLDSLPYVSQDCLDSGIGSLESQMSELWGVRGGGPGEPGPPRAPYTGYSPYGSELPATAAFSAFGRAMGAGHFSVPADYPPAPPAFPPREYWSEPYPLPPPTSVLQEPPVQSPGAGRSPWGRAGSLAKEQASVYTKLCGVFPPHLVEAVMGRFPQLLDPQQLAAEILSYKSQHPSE
Assay: Regnase-1 phosphorylation inhibition by compounds (AlphaScreen), TBK1, full-length Regnase-1
Assay type: biochemical
Conditions: Table 13; phosphorylation by TBK1; read-out: Phosphorylation inhibition FL_Reg1, 50% inhibition concentration (TBK1)
Residues, ends and D or L forms follow the SMILES beside them.
Output spec: scalar in µM, unitless text.

Enquiry: Report IC50 for C[C@@H]1C(=O)N[C@@H](CCC(=O)O)C(=O)N[C@@H](CC(=O)O)C(=O)N[C@@H]([C@@H](C)O)C(=O)N2CCC[C@H]2C(=O)N[C@@H](CCC(=O)O)C(=O)N[C@@H](CC(=O)O)C(=O)N[C@@H](CC(=O)O)C(=O)N[C@@H](Cc2c[nH]cn2)C(=O)N[C@H](C(=O)N2CCCC2)CC(=O)N1C [PP25] (HELM PEPTIDE1{[C[C@H](C(=O)[*:2])N(C)[*:1]].E.D.T.P.E.D.D.H.D.[C1CCN([*:1])C1]}$PEPTIDE1,PEPTIDE1,1:R1-10:R3$$$V2.0)
Return: 18.9

Enquiry: Tell us which IC50 value is on record for CC[C@H](C)[C@@H]1NC(=O)[C@H](C)NC(=O)[C@H](CCCNC(=N)N)NC(=O)[C@H](Cc2ccc(O)cc2)NC(=O)[C@H](Cc2ccc(O)cc2)NC(=O)[C@H](C)NC(=O)[C@H](CO)NC(=O)[C@H](CC(N)=O)NC(=O)[C@H](Cc2ccccc2)NC(=O)[C@H](CC(N)=O)NC(=O)[C@H](C)N(C)C(=O)C[C@@H](C(=O)N2CCCC2)NC(=O)[C@H](Cc2c[nH]c3ccccc23)NC1=O [PP7] (HELM PEPTIDE1{[meA].N.F.N.S.A.Y.Y.R.A.I.W.D.[C1CCN([*:1])C1]}$PEPTIDE1,PEPTIDE1,1:R1-13:R3$$$V2.0)
Return: 2.2

Enquiry: For the molecule CC[C@H](C)[C@@H]1NC(=O)[C@H](Cc2c[nH]c3ccccc23)NC(=O)[C@H](CCC(N)=O)NC(=O)[C@H](Cc2ccc(O)cc2)NC(=O)[C@H](C(C)C)NC(=O)[C@H](C)NC(=O)[C@H](Cc2ccc(O)cc2)NC(=O)[C@H](CCCNC(=N)N)NC(=O)[C@H](C)N(C)C(=O)C[C@@H](C(=O)N2CCCC2)NC(=O)[C@@H]2CCCN2C(=O)[C@H](Cc2ccc(O)cc2)NC1=O [PP12] (HELM PEPTIDE1{[meA].R.Y.A.V.Y.Q.W.I.Y.P.D.[C1CCN([*:1])C1]}$PEPTIDE1,PEPTIDE1,1:R1-12:R3$$$V2.0) , give its reported IC50.
Return: 12.7

Enquiry: Identify IC50 associated with the molecule CC[C@H](C)[C@@H]1NC(=O)[C@H](CCCCN)NC(=O)[C@H](Cc2ccc(O)cc2)NC(=O)[C@H](Cc2ccccc2)NC(=O)[C@H](C(C)C)NC(=O)[C@H](C)N(C)C(=O)C[C@@H](C(=O)N2CCCC2)NC(=O)[C@H](Cc2c[nH]c3ccccc23)NC(=O)[C@H](CC(N)=O)NC(=O)[C@H](Cc2ccc(O)cc2)NC(=O)[C@H](Cc2c[nH]c3ccccc23)NC1=O [PP19] (HELM PEPTIDE1{[meA].V.F.Y.K.I.W.Y.N.W.D.[C1CCN([*:1])C1]}$PEPTIDE1,PEPTIDE1,1:R1-11:R3$$$V2.0)
Return: 3.7
